Target: serotonin transporter (Rattus norvegicus)
Sequence (P31652 whole entry): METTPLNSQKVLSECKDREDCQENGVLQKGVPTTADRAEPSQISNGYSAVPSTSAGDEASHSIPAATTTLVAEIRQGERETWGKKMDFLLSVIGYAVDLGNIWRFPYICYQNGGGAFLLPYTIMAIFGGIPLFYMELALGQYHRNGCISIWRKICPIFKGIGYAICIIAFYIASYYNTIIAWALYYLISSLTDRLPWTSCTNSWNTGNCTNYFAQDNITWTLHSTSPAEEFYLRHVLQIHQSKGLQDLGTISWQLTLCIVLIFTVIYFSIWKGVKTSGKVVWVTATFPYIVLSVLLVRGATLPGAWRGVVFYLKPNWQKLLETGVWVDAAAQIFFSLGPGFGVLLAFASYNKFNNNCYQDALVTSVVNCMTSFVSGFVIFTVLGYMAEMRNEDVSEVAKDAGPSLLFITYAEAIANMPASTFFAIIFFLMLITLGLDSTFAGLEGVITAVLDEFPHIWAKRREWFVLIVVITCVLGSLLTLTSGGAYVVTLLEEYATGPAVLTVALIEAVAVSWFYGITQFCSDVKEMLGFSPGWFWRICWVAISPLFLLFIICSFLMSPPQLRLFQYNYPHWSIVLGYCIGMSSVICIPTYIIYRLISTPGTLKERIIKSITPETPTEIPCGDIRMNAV
Quick rule for you: Ki under 2 nM gets label 1, anything else gets label 0.

Examples with answers:
[[record]]
molecule = "Cc1ccc2c3c(ccc2n1)OCC(CN(C)CCCc1c[nH]c2c(F)cc(F)cc12)O3 (centres unmarked) [Example 16]"
group_label = "label 1"

[[record]]
molecule = "Cc1ccc2c3c(ccc2n1)OCC(CN(C)CCCn1ccc2ccc(F)cc21)O3 (centres unmarked) [Example 34]"
group_label = "label 0"


Q: Here's an entry: Cc1ccc2c3c(ccc2n1)OCC(CNC(C)CCc1c[nH]c2ccc(F)cc12)O3 (single isomer, unassigned; isomer a) [Example 11 Isomer A] . Is its Ki below 2 nM?
Result: label 1

Q: Does the reported Ki of the following molecule sit strictly below 2 nM? Cc1ccc2c3c(ccc2n1)OCC(CNCCCn1ccc2ccc(F)cc21)O3 (centres unmarked) [Example 33]
Result: label 0

Q: Is Ki strictly under 2 nM for the entry Cc1ccc2c3c(ccc2n1)OC[C@H](CN(C)CCCc1c[nH]c2ccc(C#N)cc12)O3 [Example 32] ?
Result: label 1

Q: Is the reported Ki for Cc1ccc2c3c(ccc2n1)OCC(CNCCCCc1cn(C)c2ccc(F)cc12)O3 (centres unmarked) [Example 35] strictly below 2 nM?
Result: label 0

Q: For this molecule, is Ki lower than 2 nM? Cc1ccc2c3c(ccc2n1)OC[C@H](CNCCCc1cn(C)c2ccc(C#N)cc12)O3 [Example 37]
Result: label 0

Q: In the record for COc1ccc2[nH]cc(CCNCC3COc4ccc5nc(C)ccc5c4O3)c2c1 (centres unmarked) [Example 1] , is Ki less than 2 nM?
Result: label 0

###

Molecular target: cloned human 5HT1A receptors (Homo sapiens, UniProt P08908)
Construct: expressed in transfected cells
Sequence (P08908 1-422): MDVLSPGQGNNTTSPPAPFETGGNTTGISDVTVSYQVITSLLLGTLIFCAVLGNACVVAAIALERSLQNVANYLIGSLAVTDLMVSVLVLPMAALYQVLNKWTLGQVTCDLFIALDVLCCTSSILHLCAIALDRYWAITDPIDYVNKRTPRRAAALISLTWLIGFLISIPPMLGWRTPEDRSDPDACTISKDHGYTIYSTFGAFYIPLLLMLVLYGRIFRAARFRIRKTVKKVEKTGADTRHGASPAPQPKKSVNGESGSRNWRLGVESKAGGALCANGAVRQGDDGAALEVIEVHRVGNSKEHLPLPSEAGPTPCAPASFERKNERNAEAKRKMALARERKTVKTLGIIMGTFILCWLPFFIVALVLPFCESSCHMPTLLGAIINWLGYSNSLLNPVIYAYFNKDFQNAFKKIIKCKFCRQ
Assay: 35S-GTPγS binding assay, membranes containing cloned human 5HT1A receptors
Assay type: biochemical
Conditions: maximum inhibitory effect, read-out: 5-HT1A Function (Imax)
Consider the following compounds; for each one, report its Emax.
Give bare numbers, in %.

Below are worked cases with known answers.
[[record]]
compound = "Cc1ccc2c3c(ccc2n1)OCC(CN(C)CCCc1cn(C)c2c(F)cc(F)cc12)O3 (centres unmarked)"
test_target = "cloned human 5HT1A receptors (Homo sapiens, UniProt P08908)"
endpoint_value = 100

[[record]]
compound = "Cc1ccc2c3c(ccc2n1)OC[C@H](CNCCc1c[nH]c2ccc(Cl)cc12)O3"
test_target = "cloned human 5HT1A receptors (Homo sapiens, UniProt P08908)"
endpoint_value = 37

[[record]]
compound = "CCN(CCCc1c[nH]c2ccc(F)cc12)C[C@H]1COc2ccc3nc(C)oc3c2O1"
test_target = "cloned human 5HT1A receptors (Homo sapiens, UniProt P08908)"
endpoint_value = 91.9

[[record]]
compound = "Cc1nc2ccc3c(c2o1)OC(CN(C)CCCc1c[nH]c2ccc(F)cc12)CO3 (centres unmarked)"
test_target = "cloned human 5HT1A receptors (Homo sapiens, UniProt P08908)"
endpoint_value = 100

[[record]]
compound = "Cc1ccc2c3c(ccc2n1)OCC(CN(C)CCCc1cn(C)c2ccc(C#N)cc12)O3 (centres unmarked)"
test_target = "cloned human 5HT1A receptors (Homo sapiens, UniProt P08908)"
endpoint_value = 100

[[record]]
compound = "Cc1ccc2c3c(ccc2n1)OC[C@H](CNCCCc1cn(C)c2ccc(C#N)cc12)O3"
test_target = "cloned human 5HT1A receptors (Homo sapiens, UniProt P08908)"
endpoint_value = 100

[[record]]
compound = "Cc1ccc2c3c(ccc2n1)OCC(CNCCc1csc2ccccc12)O3 (centres unmarked)"
test_target = "cloned human 5HT1A receptors (Homo sapiens, UniProt P08908)"
endpoint_value = 37.5

[[record]]
compound = "Cc1ccc2c3c(ccc2n1)OC[C@H](CNCCCc1csc2ccc(Cl)cc12)O3"
test_target = "cloned human 5HT1A receptors (Homo sapiens, UniProt P08908)"
endpoint_value = 50

[[record]]
compound = "COc1cccc2c(CCCNCC3COc4ccc5nc(C)ccc5c4O3)coc12 (centres unmarked)"
test_target = "cloned human 5HT1A receptors (Homo sapiens, UniProt P08908)"
endpoint_value = 95.4

[[record]]
compound = "Cc1ccc2c3c(ccc2n1)OC[C@H](CNCCCc1c[nH]c2ccc(F)cc12)O3"
test_target = "cloned human 5HT1A receptors (Homo sapiens, UniProt P08908)"
endpoint_value = 98.7


Hi team, please reply with Emax for each item in this list.
1. Cc1ccc2c3c(ccc2n1)OCC(CNCCCCc1c[nH]c2ccc(F)cc12)O3 (centres unmarked)
2. Cc1ccc2c3c(ccc2n1)OCC(CNCCCc1c[nH]c2ccccc12)O3 (centres unmarked)
3. Cc1ccc2c3c(ccc2n1)OCC(CNCCCCn1ccc2ccc(F)cc21)O3 (centres unmarked)
4. Cc1ccc2c3c(ccc2n1)OCC(CN(C)CCCn1ccc2ccc(F)cc21)O3 (centres unmarked)
5. Cc1ccc2c3c(ccc2n1)OC[C@H](CNCCCc1coc2ccccc12)O3
6. CCc1ccc2c3c(ccc2n1)OCC(CNCCCc1c[nH]c2ccc(F)cc12)O3 (centres unmarked)

Result:
1: 61.5; 2: 86.6; 3: 85.5; 4: 100; 5: 59.3; 6: 76.8

Given the compound Cc1nc2ccc3c(c2o1)O[C@@H](CN(C)CCCc1c[nH]c2ccc(C#N)cc12)CO3 and test system cloned human 5HT1A receptors (Homo sapiens, UniProt P08908), the measured Emax is 97.7
